- target: HIV-1 protease (Human immunodeficiency virus type 1 group M subtype B)
- assay notes: biochemical
- test context: Table I; read-out: HIV Protease FITC Assay Ki
metric: Ki (nM)
Supply the numeric figure in nM, leaving out any unit text.

Consider the following illustrative entries.
CC[C@H](Cc1ccccc1)c1cc(O)c(C(c2cccc(NS(=O)(=O)c3nccn3C)c2)C2CC2)c(=O)o1 (single isomer, unassigned) [Example 143] ... 0.8
CCC(C1=C(O)CC(CCC2CC2)(CCC2CC2)OC1=O)c1cccc(NS(=O)(=O)c2ccc(C#N)cn2)c1 (centres unmarked) ... 1.2
CC[C@H](Cc1ccccc1)c1cc(O)c(C(c2cccc(NS(=O)(=O)c3nccn3C)c2)C2CC2)c(=O)o1 (single isomer, unassigned) [Example 144] ... 1.2

[ask] Record lookup: for HIV-1 protease (Human immunodeficiency virus type 1 group M subtype B), what Ki belongs to CCCC1(CCc2ccccc2)CC(O)=C(C(CC)c2cccc(NS(=O)(=O)c3ccc(C#N)cc3)c2)C(=O)O1 (centres unmarked) ?
[reply] 10.8

[ask] # get_value(readout= Ki, system= HIV-1 protease (Human immunodeficiency virus type 1 group M subtype B)) for CCCC1(CCC)CC(O)=C(C(c2cccc(NS(=O)(=O)c3ccc(C#N)cc3)c2)C2CC2)C(=O)O1 (centres unmarked)
[reply] 1.78
